# Species on record: Rattus norvegicus
# Assay Overview: Open TG-GATES - Regimen: Single
# Format: toxicity, organism-based, Sprague-Dawley
# Set-up: regimen Single, gender Male, age 6 weeks
# Condition Label: in vivo, po, 0 mg/kg, 3 h, tissue Plasma, route gavage, dose level Control
Measured Endpoint: GLC (mg/dL)
One number for each entry, in mg/dL.

{"Molecule": "Nc1nc(N)c2nc(-c3ccccc3)c(N)nc2n1", "GLC (mg/dL)": 173.4}
{"Molecule": "CC(=O)Oc1cc(C(C)C)c(OCCN(C)C)cc1C [MOXISYLYTE]", "GLC (mg/dL)": 186.8}
{"Molecule": "O=C(N[C@H](CO)[C@H](O)c1ccc([N+](=O)[O-])cc1)C(Cl)Cl [CHLORAMPHENICOL]", "GLC (mg/dL)": 184.2}
{"Molecule": "C[C@](N)(Cc1ccc(O)c(O)c1)C(=O)O [METHYLDOPA]", "GLC (mg/dL)": 164.4}
{"Molecule": "CCN1CCCC1CNC(=O)c1cc(S(N)(=O)=O)ccc1OC (centres undefined) [SULPIRIDE]", "GLC (mg/dL)": 177}

Give GLC for each of the items listed below.
1. C[C@]12CCC(=O)C=C1CC[C@@H]1[C@@H]2CC[C@@]2(C)[C@H]1CC[C@]2(C)O [METHYLTESTOSTERONE]
2. Oc1ncnc2[nH]ncc12 [ALLOPURINOL]
3. CC(=N)S [THIOACETAMIDE]
4. CN1C(=O)OC(C)(C)C1=O [TRIMETHADIONE]

Solution:
1. 182.8
2. 189.4
3. 181.6
4. 181.4

// each listed molecule needs a value for GLC
1. CC(C)C(=O)Nc1ccc([N+](=O)[O-])c(C(F)(F)F)c1 [FLUTAMIDE]
2. CCc1oc2ccccc2c1C(=O)c1cc(I)c(O)c(I)c1 [BENZIODARONE]
3. CCSCC[C@H](N)C(=O)O [ETHIONINE]
4. CC(C)(S)[C@@H](N)C(=O)O [PENICILLAMINE]
5. O=C(O)c1cccnc1 [NIACIN]

Solution:
1: 193.4; 2: 191.8; 3: 196.6; 4: 178.8; 5: 182.4

====

# Organism: Rattus norvegicus
# Assay Overview: Open TG-GATES - Regimen: Single
# Format: toxicity, organism-based, Sprague-Dawley
# Set-up: regimen Single, gender Male, age 6 weeks
# Condition Label: in vivo, po, 0 mg/kg, 6 h, route gavage, dose level Control
Measured Endpoint: TERMINAL_BW (g)
Answers are plain numbers, in g.

Below are worked cases with known answers.
{"Compound": "CCSCC[C@H](N)C(=O)O", "Unit Abbreviation": "g", "TERMINAL_BW": 211.6}
{"Compound": "Oc1ncnc2[nH]ncc12", "Unit Abbreviation": "g", "TERMINAL_BW": 210}
{"Compound": "CC(C)(S)[C@@H](N)C(=O)O", "Unit Abbreviation": "g", "TERMINAL_BW": 201.2}
{"Compound": "O=C(N[C@H](CO)[C@H](O)c1ccc([N+](=O)[O-])cc1)C(Cl)Cl", "Unit Abbreviation": "g", "TERMINAL_BW": 222.3}
{"Compound": "CCC(C)(C)C(=O)O[C@H]1C[C@@H](C)C=C2C=C[C@H](C)[C@H](CC[C@@H]3C[C@@H](O)CC(=O)O3)[C@H]21", "Unit Abbreviation": "g", "TERMINAL_BW": 199.1}
{"Compound": "CN1C(=O)OC(C)(C)C1=O", "Unit Abbreviation": "g", "TERMINAL_BW": 205.6}

# return TERMINAL_BW for each item in the list
1. C#C[C@]1(O)CC[C@H]2[C@@H]3CCc4cc(O)ccc4[C@H]3CC[C@@]21C
2. CCc1oc2ccccc2c1C(=O)c1cc(I)c(O)c(I)c1
3. CC(C)C(=O)Nc1ccc([N+](=O)[O-])c(C(F)(F)F)c1 [FLUTAMIDE]

Solution:
[194, 210.7, 207.5]

====

# Species: Rattus norvegicus
# Assay Overview: Open TG-GATES - Regimen: Single
# Assay type: toxicity, organism-based, Sprague-Dawley
# Parameters: regimen Single, gender Male, age 6 weeks
# Condition Label: in vivo, po, 0 mg/kg, 9 h, tissue Plasma, route gavage, dose level Control
// NB: equality with 90 IU/L counts as Not fulfilled; only LDH strictly below is Fulfilled

{"Smiles Representation": "CCc1oc2ccccc2c1C(=O)c1cc(I)c(O)c(I)c1", "Assigned Class": "Fulfilled"}
{"Smiles Representation": "CCC(C)(C)C(=O)O[C@H]1C[C@@H](C)C=C2C=C[C@H](C)[C@H](CC[C@@H]3C[C@@H](O)CC(=O)O3)[C@H]21", "Assigned Class": "Fulfilled"}
{"Smiles Representation": "C#C[C@]1(O)CC[C@H]2[C@@H]3CCc4cc(O)ccc4[C@H]3CC[C@@]21C", "Assigned Class": "Fulfilled"}

Then there is this compound:
Exercise: Please check: LDH for O=C(O)c1cccnc1 , strictly under 90 IU/L or not?
Solution: Not fulfilled

====

# Organism: Rattus norvegicus
# Assay Overview: Open TG-GATES - Regimen: Single
# Format: toxicity, organism-based, Sprague-Dawley
# Set-up: regimen Single, gender Male, age 6 weeks
# Condition Label: in vivo, po, 0 mg/kg, 3 h, tissue Plasma, route gavage, dose level Control
Lab note: anything with DBIL below 0.006 mg/dL is marked t; values at 0.006 mg/dL or higher are marked f.

Worked cases, answers included:
{"Compound": "CC(=O)Oc1cc(C(C)C)c(OCCN(C)C)cc1C", "Assigned Class": "t"}
{"Compound": "CC(C)(S)[C@@H](N)C(=O)O", "Assigned Class": "f"}
{"Compound": "O=C(O)c1cccnc1", "Assigned Class": "t"}
{"Compound": "CCN1CCCC1CNC(=O)c1cc(S(N)(=O)=O)ccc1OC (configuration not stated) [SULPIRIDE]", "Assigned Class": "f"}

Exercise: Determine whether this compound shows DBIL lower than 0.006 mg/dL (ties excluded): CC(=N)S [THIOACETAMIDE]
Solution: t

Exercise: Answer whether the compound Nc1nc(N)c2nc(-c3ccccc3)c(N)nc2n1 has DBIL strictly less than 0.006 mg/dL
Solution: f

====

# Organism: Rattus norvegicus
# Assay Overview: Open TG-GATES - Regimen: Daily Repeat
# Assay type: toxicity, organism-based, Sprague-Dawley
# Set-up: regimen Daily Repeat, gender Male, age 6 weeks
# Condition Label: in vivo, po, 300 mg/kg, […], tissue Blood, route gavage, dose level Middle, time 28 day
Provide the reported Lym of each item.
One number for each entry, in %.

# count of solved cases: 3
{"Compound": "CC(C)(S)[C@@H](N)C(=O)O", "Lym [%]": 78}
{"Compound": "O=C(O)c1cccnc1", "Lym [%]": 74.8}
{"Compound": "O=C(N[C@H](CO)[C@H](O)c1ccc([N+](=O)[O-])cc1)C(Cl)Cl", "Lym [%]": 86.8}

Note: attention shifts to another entry.
Entry under test: CCN1CCCC1CNC(=O)c1cc(S(N)(=O)=O)ccc1OC (centres undefined) [SULPIRIDE] . Its Lym was 76.4

====

# Species on record: Rattus norvegicus
# Assay Overview: Open TG-GATES - Regimen: Single
# Assay type: toxicity, organism-based, Sprague-Dawley
# Parameters: regimen Single, gender Male, age 6 weeks
# Condition Label: in vivo, po, 0 mg/kg, 6 h, tissue Blood, route gavage, dose level Control
Measured Endpoint: MCH (pg)
Numbers only, in pg.

Examples from the recorded data:
{"Compound": "CC(=O)Oc1cc(C(C)C)c(OCCN(C)C)cc1C [MOXISYLYTE]", "Measured Value": 21.4}
{"Compound": "CC(=N)S [THIOACETAMIDE]", "Measured Value": 21.6}
{"Compound": "CCC(C)(C)C(=O)O[C@H]1C[C@@H](C)C=C2C=C[C@H](C)[C@H](CC[C@@H]3C[C@@H](O)CC(=O)O3)[C@H]21 [SIMVASTATIN]", "Measured Value": 21.8}
{"Compound": "C[C@](N)(Cc1ccc(O)c(O)c1)C(=O)O [METHYLDOPA]", "Measured Value": 21.6}

Here are 2 compounds. What values of MCH were reported for them?
1. CC(C)(S)[C@@H](N)C(=O)O [PENICILLAMINE]
2. CCSCC[C@H](N)C(=O)O [ETHIONINE]

Solution:
[20.6, 21.3]

State the recorded MCH for every item in the following list.
1. Nc1nc(N)c2nc(-c3ccccc3)c(N)nc2n1
2. CCN1CCCC1CNC(=O)c1cc(S(N)(=O)=O)ccc1OC (centres undefined) [SULPIRIDE]
3. C[C@]12CCC(=O)C=C1CC[C@@H]1[C@@H]2CC[C@@]2(C)[C@H]1CC[C@]2(C)O [METHYLTESTOSTERONE]
4. CN1C(=O)OC(C)(C)C1=O [TRIMETHADIONE]
5. CC(C)C(=O)Nc1ccc([N+](=O)[O-])c(C(F)(F)F)c1 [FLUTAMIDE]

Solution:
1: 21.3; 2: 20.5; 3: 21.5; 4: 21.4; 5: 21.9

Return reported MCH values for all items listed beneath this line.
1. CCc1oc2ccccc2c1C(=O)c1cc(I)c(O)c(I)c1 [BENZIODARONE]
2. Oc1ncnc2[nH]ncc12 [ALLOPURINOL]
3. O=C(N[C@H](CO)[C@H](O)c1ccc([N+](=O)[O-])cc1)C(Cl)Cl [CHLORAMPHENICOL]

Solution:
1: 21.7; 2: 22.2; 3: 21.6
